I'd appreciate it if you could supply GI50 values for the items below.
System: IGROV-1
assay notes: NCI tumour cell line growth inhibition, 48 h
Activity calls are given as the source filed them. Cut-off read from the data, not from the text of the source: active = GI50 up to about 1.1 µM and inactive = higher.

Request: Notebook: pull reported GI50 for IGROV-1, entry COc1ccc(/C=C(\Cl)c2ccc(OC)c(OC)c2)cc1OC
Result: > 100 µM (inactive)

Request: What is its GI50 for IGROV-1? Entry: Clc1ccc(C2c3ccccc3-c3nc4ccccc4n32)cc1 (stereo not given)
Result: 12.6 µM (inactive)

Request: Please provide the recorded GI50 for CC(=O)OCC1OC(n2c(N)c(C#N)c(-c3ccccc3)c(C#N)c2=S)C(OC(C)=O)C(OC(C)=O)C1OC(C)=O (stereo not given) , tested on IGROV-1.
Result: > 100 µM (inactive)

Request: Form field - read-out: GI50; system: IGROV-1; submitted item: CCCC(=O)/C=C/S/C=C/C(=O)CCC
Result: 21.6 µM (inactive)

Request: For IGROV-1, provide GI50 of C[C@@H]1C[C@@]2(O[C@@H]2C)C(=O)O[C@@H]2CCN3CC=C(COC(=O)[C@]1(C)O)[C@H]23 please.
Result: > 100 µM (inactive)

Request: Form: Entry = CC1=NN(C(=O)CC(=O)Nc2cccc(Cl)c2)C(=O)C1/N=N\c1ccc(S(=O)(=O)c2ccc(/N=N/C3C(=O)N(C(=O)CC(=O)Nc4cccc(Cl)c4)N=C3C)cc2)cc1 (stereo not given) | System = IGROV-1 | GI50 = ____
Result: > 100 µM (inactive)

Request: Form field - read-out: GI50; system: IGROV-1; submitted item: Cc1ccc(S(=O)(=O)NNCNC(=O)c2ccccc2)cc1
Result: > 100 µM (inactive)

Request: Checklist item: GI50 tested on IGROV-1, entry CN(/N=C/c1ccccc1O)c1ccc2ccccc2n1 , value?
Result: 11.3 µM (inactive)

Request: Missing value: GI50, IGROV-1, entry COC(=O)C1=CNC(C(=O)OC)=NN1 . Fill in?
Result: > 100 µM (inactive)

Request: GET /values?readout=GI50&system=IGROV-1&item= CC(=O)c1c(O)cc(O)c(-c2c(C)cc(O)c3c2C(=O)c2cccc(O)c2C3=O)c1O
Result: 11.6 µM (inactive)

---

System: KM12
assay notes: NCI tumour cell line growth inhibition, 48 h
Activity calls are given as the source filed them. No stated cut-off is given here; in the data, active = GI50 up to about 1.1 µM and inactive = higher.
For each of the compounds below, state its GI50.

Request: Lab request: please report GI50 under test system KM12 for CCOC(=O)c1nc2cc(C(F)(F)F)ccc2nc1Nc1cc(OC)c(OC)c(OC)c1
Result: > 100 µM (inactive)

Request: Missing value: GI50, KM12, entry COc1ccc(N[S+]([O-])CCCc2ccccc2)cc1 (centres undefined) . Fill in?
Result: 34.8 µM (inactive)

Request: Record N#Cc1c(-c2ccc([N+](=O)[O-])cc2)c(C#N)c(=O)n(NS(=O)(=O)c2ccccc2)c1S : what is its GI50 with KM12?
Result: 25.3 µM (inactive)

Request: Please tell me: GI50 of O=c1cc(NNc2cccc(F)c2)[nH]c(=O)[nH]1 , system KM12?
Result: > 100 µM (inactive)

Request: Reported GI50 for KM12, given O=C1N(c2ccccc2)C2(O)C(=O)c3ccccc3C2(O)N1c1ccccc1 (centres undefined) ?
Result: > 100 µM (inactive)

Request: API: value(readout= GI50, system= KM12, query= CCCN(CCC)CCc1ccc(OC2=CCN(C)CC2)cc1 )
Result: 30.4 µM (inactive)

Request: Query for KM12: what GI50 does the record show for Cc1ccc(C(=O)CCC2C(=O)CC(C)(C)CC2=O)cc1 ?
Result: > 100 µM (inactive)

Request: Item O=C1Cc2c(-c3ccccc3)cc(-c3ccccc3)nc2-c2ccccc2N1 with KM12 - GI50?
Result: 2.84 µM (inactive)

Request: Form entry - test system: KM12; read-out: GI50; compound: CC1=NN(C(=O)CC(=O)Nc2cccc(Cl)c2)C(=O)C1/N=N\c1ccc(S(=O)(=O)c2ccc(/N=N/C3C(=O)N(C(=O)CC(=O)Nc4cccc(Cl)c4)N=C3C)cc2)cc1 (centres undefined)
Result: > 100 µM (inactive)

Request: What value of GI50 on KM12 does CCOC(=O)C(C(C)=O)C1CC=CC1 (centres undefined) have?
Result: > 100 µM (inactive)

Request: Observed GI50 on KM12 for O=[N+]([O-])c1ccc(-n2nc3ccc4c(no[n+]4[O-])c3[n+]2[O-])c([N+](=O)[O-])c1 , please.
Result: 1.79 µM (inactive)

Request: Field: GI50 (KM12). Entry: C/C(=N\NC(=S)NC(CCC(=O)O)C(=O)O)c1ccccn1 (centres undefined)
Result: > 100 µM (inactive)

Request: What reported GI50 corresponds to COc1cc2c(cc1O)Cc1c-2[n+](C)cc2cc(OC)c(OC)cc12 on KM12?
Result: > 59.6 µM (inactive)

Request: Query for KM12: what GI50 does the record show for C=C1CC[C@]2(C)[C@H](CC[C@@]34C[C@@H](CC[C@H]32)[C@@H](C(=O)O)C4)C1(C)C ?
Result: > 12.5 µM (inactive)
